B1: glmS ribozyme (parent)
chain: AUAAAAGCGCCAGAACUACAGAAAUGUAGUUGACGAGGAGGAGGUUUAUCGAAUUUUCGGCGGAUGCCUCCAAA

- Variants of: B1
- EXPERIMENT NOTES: self-cleavage kobs at 640 uM GlcN6P; higher = faster cleavage; RNA array
- PROTOCOL CONDITIONS: with glucosamine-6-phosphate
Fewer inactive variants are shown than the library holds.
QUANTITY NAME: self-cleavage kobs at 640 uM GlcN6P

Sure, the documented self-cleavage kobs at 640 uM GlcN6P for AUAAACGCGCCAGAAUUACAGAAAUGUAGUUGACGAGUAGGAGGUUCAUCGAAUUUUCGGCGAAUGCCUCCAAA [A6C C16U G38U U47C G63A] is < 1e-05 s⁻¹

For this variant ( AUAAAAGCGCCAGUAGUACAGAAAUGUAGUUGACGAGGAGGAGGUUUAUCGAAUUUUCGGCGGAUGCCUCCAAA [A14U C16G] ), measured self-cleavage kobs at 640 uM GlcN6P is 0.000263 s⁻¹

The variant identified as AUAAAAGCGCAAGAACUACAGAAAUGUAGUUGACGAGGAGGAGGUUUUUCGAAUUUUCGGCGGAUGCCUCCAAA [C11A A48U] registered its self-cleavage kobs at 640 uM GlcN6P at < 1e-05 s⁻¹

Kindly note the recorded self-cleavage kobs at 640 uM GlcN6P for AUAAAAGCGCCAGAACUACAGAAAUGUAGUUGACGAGGAGGAGCUUUUUAGAAUUUUCGGCGGAUGCCUCCAAA [G44C A48U C50A] , which is < 1e-05 s⁻¹

Looking up AUAAAAGCGCCAGAACUACAGAAAUGUAGUCGACGAAGAGGAGUUUUUUAGAAUUUUCGGCGGAGGCCUCCAAA [U31C G37A G44U A48U C50A U65G] , I found its self-cleavage kobs at 640 uM GlcN6P recorded as < 1e-05 s⁻¹

Kindly note the recorded self-cleavage kobs at 640 uM GlcN6P for AUAAAAGCGCCAGAACUACAGAAAUGUAGUUGACGAGGAGGAGGUUUAUCGAAUUUUUGGUGGAUGCCUCCAAA [C58U C61U] , which is < 1e-05 s⁻¹

Memo: AUAAAAGCGCCAGAACUACAGAAAUGUAGUUGACGAGGAGGAGGCUUAUGAAUUUUUCGCCGGAUGCCUCCAAA [U45C C50G G51A A53U G60C] , reported self-cleavage kobs at 640 uM GlcN6P: < 1e-05 s⁻¹

Form field self-cleavage kobs at 640 uM GlcN6P, entry AUAAAAGCGCCAGAACUACAGAAAUGUAGUUGAAGAGGAGGAGGUUUAUCGAAUUUUCGGCAGAUGCCUCCAAA [C34A G62A] : < 1e-05 s⁻¹

Summary for this variant, AUAAAAGCGCCAGAACUACAGAAAUGUAGUUGACGAGGAUGAGGUUUAUCGAAUUUUCGGCGGAUGUCUCCAAA [G40U C67U] : self-cleavage kobs at 640 uM GlcN6P is 2.67e-05 s⁻¹

Lab note: AUAAAAGCGCCAGAACUACAGAAAUGUAGUUGACGAGGAGGAGGCUUAUCGACUUUUCGGCGGAUGUCUCCAAA [U45C A53C C67U] gave self-cleavage kobs at 640 uM GlcN6P of 5.23e-05 s⁻¹

The reported value for AUAAAAGCGCCAGAACUACAGAAAUGUAGUUGACGAGGAUGAGGUUUAUCGAAUAUUCGGCGGAUGCCUCCAAA [G40U U55A] in terms of self-cleavage kobs at 640 uM GlcN6P is 0.000764 s⁻¹

The recorded self-cleavage kobs at 640 uM GlcN6P for AUAAAAGCGCCAGAACUACAGAAAUGUAGUGGACGAGGAGGAGGUUUAUCGAAUUGUCGGCGGAUGUCUCCAAA [U31G U56G C67U] is 0.000176 s⁻¹

Record AUAAAAGCGCCAGAACUACAGAAAUGUAGUUGACGAGGAGGAGGUUUAUCGAAUUUUCGGCGGAUGCCUGAAAA [C70G C71A] , field self-cleavage kobs at 640 uM GlcN6P: 7.38e-05 s⁻¹

Sure, the documented self-cleavage kobs at 640 uM GlcN6P for AUAAAAGCCCCAGAACUACAGAAAUGUAGUUGACGAGGAGGAGGUUUAUCGAAUUUUCGGCGGCUGCCUCCAAA [G9C A64C] is < 1e-05 s⁻¹

Looking up AUAAAUGCGACAGUACUACAGAAAUGUAGUUGACGAGGAGGAGGUUUAUCGAAUUUUCGGCGGAUGCCUUCAAA [A6U C10A A14U C70U] , I found its self-cleavage kobs at 640 uM GlcN6P recorded as 0.000391 s⁻¹

AUAAAAGCGCCAGAACUACAGAAAUGUAGUUGACGAGGAGGCGGUUUAUCGAAUUUUCGGCUGAUGCCUCCAAA [A42C G62U] has a reported self-cleavage kobs at 640 uM GlcN6P of < 1e-05 s⁻¹

Looking up AUAAAAGCGCCAGAACUACAGAAAUGUAUUUGACGAGGAGGAGGCUUAUCGAAUGUUCGGCGGAUGCCUCCAAA [G29U U45C U55G] , I see its self-cleavage kobs at 640 uM GlcN6P listed as 3.35e-05 s⁻¹

Noted for AUAAAAGCGCCAGAACUACAGAAAUGUAGUUUACGAGUAGGAGGUUUAUCGAAUUUUCGGCGGAUGCCUCCAAA [G32U G38U] : its self-cleavage kobs at 640 uM GlcN6P reads < 1e-05 s⁻¹

The variant listed as AUAAAAGCGCCAGAACUACAGAAAUGUAGUUGACGAGGAGGAGGUUUAUCGAAUUUUCGGCGGACACCUCCAAA [U65C G66A] shows self-cleavage kobs at 640 uM GlcN6P equal to 0.000112 s⁻¹

response.value for AUAAAAGCUGCAGAACUACAGAAAUGUAGUUGACGAGGAGGAGGUUUAUCGAAUUUUCGGCGGAUGCCUCCAAA [G9U C10G] (field: self-cleavage kobs at 640 uM GlcN6P) = < 1e-05 s⁻¹

The variant listed as AUAAAAGCGCCAGAACUACAGAAAUGUAGUUGACGAGGGGGAGGUUUAUCGAUUUUUCGGCGGAUGCCUCCAAA [A39G A53U] has a reported self-cleavage kobs at 640 uM GlcN6P of 0.0101 s⁻¹

get_value(item= AUAAAAGCGCCAGAUCUACAGAAAUGUAGUUGACGAGGCGCAGGUUUAUCGAAUUUUCGGCGGAUGCCUCCAAA [A15U A39C G41C] , readout=self-cleavage kobs at 640 uM GlcN6P) returns < 1e-05 s⁻¹

Recorded self-cleavage kobs at 640 uM GlcN6P (variant AUAAAAGCGCCAGAACUACAGAAAUGUAGUUGACGAUGAGGAGGUUUAUCGAAGUUUCGGCGGAUGCCUCCAAA [G37U U54G] ): < 1e-05 s⁻¹

For record AUAAAACCGCCAGAACUACAGAAUUGUAGUUGACGAGGAGGAGGUAUAUCGAAUUUUCGGCGGAUGCUUCCAAA [G7C A24U U46A C68U] the listed self-cleavage kobs at 640 uM GlcN6P is < 1e-05 s⁻¹

The recorded self-cleavage kobs at 640 uM GlcN6P for entry AUAAAAGCGCCGGAACUACAGAAAUGUAGUUGACGAGUUGGAGGUUUAUCGAAUUUUCGGCGGAUGCCUCCAAA [A12G G38U A39U] equals < 1e-05 s⁻¹

The variant listed as AUAAAAGCUCCAGAACUACAGAAAUGUAGUUGACGAGGAGGGGGUGUAUCGAAUUUUCGGCGGAUGCCUCCAAA [G9U A42G U46G] shows self-cleavage kobs at 640 uM GlcN6P equal to < 1e-05 s⁻¹

Lab book: self-cleavage kobs at 640 uM GlcN6P of AUAAAAGCGCCAGAACUACAGAAAUGUAGUUGACGAGGAGGUGGUUUAUCCAAUUUUCGGCGGAUGCCUCCAAA [A42U G51C] noted as < 1e-05 s⁻¹

Per the records, this variant ( AUAAAAGUGCAAGAACUACAGAAAUGUAGUUGACGAGGAGGAGGUUUAUCGAAUUUUCGGCGGAUGCCUCCAAA [C8U C11A] ) has self-cleavage kobs at 640 uM GlcN6P equal to < 1e-05 s⁻¹

// self-cleavage kobs at 640 uM GlcN6P lookup, variant = AUAAAAGCGCCAGAACGACAGAAAUGUAGUUGACGAGGAGGAGGUUUAUCGAAUUUUCGGCGAAUGCCUCCAAA [U17G G63A] , result: < 1e-05 s⁻¹

Note to self: self-cleavage kobs at 640 uM GlcN6P recorded for AUAAAAGCGCCAGAACUACAGAAAUGUAGUUGACGAGGAGGAGGUUAUUCGAAUUUUCGGCGGAUGCCUCCAAA [U47A A48U] was 6.18e-05 s⁻¹

Value of self-cleavage kobs at 640 uM GlcN6P reported for the variant AUAAAAGCGCCAGAACUACAGAAAUGUAGUUGACGAGGAGGAGGUUUAUCGAAUUUUCGGGGGAUGACUCCAAA [C61G C67A] is 3.33e-05 s⁻¹

self-cleavage kobs at 640 uM GlcN6P in this record for AUAAAAGCGCCAGAACUACAGAAAUGUACUUGACGAGGAGGAGGUUUAUCGAAUGUUCGGCGGAUGCCUCAAAA [G29C U55G C71A] : 0.000503 s⁻¹

Record AUAAAAGCGCCAGAACUACAGAAAUGUAGUUGAUGAGGAGGAGGUUUAUCGAAUUUUCGGCGGAUGCCACCAAA [C34U U69A] . Reported self-cleavage kobs at 640 uM GlcN6P: 0.00034 s⁻¹

Per the records, this variant ( AUAAAAGCGCUAGAACUACAGAAAUGUAGAUGACGAGGAGGAGGUUUAUCGAAUUUUCGGCGGAUGCCUCCAAA [C11U U30A] ) has self-cleavage kobs at 640 uM GlcN6P equal to 0.000433 s⁻¹

According to the records, this variant AUAAAAUCGCCAGAACUACAGAAAUGUAGUUGACUAGGAGGAGGUUUAUCGAAUUUUUGGCGGAUGCCUAUAAA [G7U G35U C58U C70A C71U] displays self-cleavage kobs at 640 uM GlcN6P of < 1e-05 s⁻¹

The reported value for AUAAAAGCGCCCGAACUACAGAAAUGUAGUUGACGAGGAGGAGGUUUAUCGAAUUUUCGCCGGAUGCCUCCAAA [A12C G60C] in terms of self-cleavage kobs at 640 uM GlcN6P is < 1e-05 s⁻¹

Form field self-cleavage kobs at 640 uM GlcN6P, entry AUAAAAGCGCCAGAACUACAGAAAUGUAGUUGACGAGGAGGAGGUUUAUUGAAUUUUCGGCGGAUGCCGUCAAA [C50U U69G C70U] : 8.65e-05 s⁻¹

Item: AUAAAAGCGCCAGAACUACAGAAAUGUAAAUGACGAGGAGGGGGUUUAUCGAGUUUUCGGCGGAUGCCUCCAAA [G29A U30A A42G A53G] | self-cleavage kobs at 640 uM GlcN6P: 9.25e-05 s⁻¹

Quick note, self-cleavage kobs at 640 uM GlcN6P for AUAAAAGCGCCAGAACUACAGAAAUGUAGUUGACGAGGAGGAGGUUUCUCGAAUCUUCGGCGGAUGCCUCCAAA [A48C U55C] landed at 6.73e-05 s⁻¹

Per the record, AUAAAAGCGCCAGAACUACAGAAAUGUAGUUGGCGAGGAGGAGGCUUAUCGAAUUUUCGGCGGAUGCCUCCAAA [A33G U45C] has self-cleavage kobs at 640 uM GlcN6P of < 1e-05 s⁻¹

Lab book: self-cleavage kobs at 640 uM GlcN6P of AUAAAAGCGCAGGAACUACAGAAAUGUAGUUGACGAGGAGGAGGUUUAUCGAAUUUUCGGCGGAUGCCUCCAAA [C11A A12G] noted as 2.43e-05 s⁻¹

Note to self: self-cleavage kobs at 640 uM GlcN6P recorded for AUAAAAGCGCCAGAACUACAGAAAUGUAGUUGACCAGGAGGAGGUUUAUCGAAUUUUUGGCGGAUGCCUCCAAA [G35C C58U] was < 1e-05 s⁻¹

The variant listed as AUAAAAGCGCCUGAACUACAGAAAUGUAGUUGACGAGGAGGAGGUUUAUCGAAUUUUCGGCGGAUGUCUCCAAA [A12U C67U] shows self-cleavage kobs at 640 uM GlcN6P equal to 0.0142 s⁻¹

Input AUAAAAGCGCCAUAACUACAGAAAUGUAGUUGACGAGGAGGAGGUUUAUCGAAUUUUCGGCGGGUGCCUCCAAA [G13U A64G] . Output self-cleavage kobs at 640 uM GlcN6P: 0.000149 s⁻¹

Reported self-cleavage kobs at 640 uM GlcN6P ( AUAAAAGCGCCAGACCUACAGAAAUGUAGUUGACGAGGAGGGGGUUUAUCGACUUUUCGGCGGAUGCCUCCAAA [A15C A42G A53C] ) = 0.000469 s⁻¹

Notebook: AUAAAAGCGCCAGAACUACAGAAAUGUAGUUGACGAGGAGGAGGUUUAUCGAAUUUUCGGCGGCUGGCUCCAAA [A64C C67G] , self-cleavage kobs at 640 uM GlcN6P read as < 1e-05 s⁻¹
